# targetUnderTest: Torsin-1A-interacting protein 1 (Homo sapiens) (UniProt Q5JTV8)
# Sequence (Q5JTV8 whole entry, looked up): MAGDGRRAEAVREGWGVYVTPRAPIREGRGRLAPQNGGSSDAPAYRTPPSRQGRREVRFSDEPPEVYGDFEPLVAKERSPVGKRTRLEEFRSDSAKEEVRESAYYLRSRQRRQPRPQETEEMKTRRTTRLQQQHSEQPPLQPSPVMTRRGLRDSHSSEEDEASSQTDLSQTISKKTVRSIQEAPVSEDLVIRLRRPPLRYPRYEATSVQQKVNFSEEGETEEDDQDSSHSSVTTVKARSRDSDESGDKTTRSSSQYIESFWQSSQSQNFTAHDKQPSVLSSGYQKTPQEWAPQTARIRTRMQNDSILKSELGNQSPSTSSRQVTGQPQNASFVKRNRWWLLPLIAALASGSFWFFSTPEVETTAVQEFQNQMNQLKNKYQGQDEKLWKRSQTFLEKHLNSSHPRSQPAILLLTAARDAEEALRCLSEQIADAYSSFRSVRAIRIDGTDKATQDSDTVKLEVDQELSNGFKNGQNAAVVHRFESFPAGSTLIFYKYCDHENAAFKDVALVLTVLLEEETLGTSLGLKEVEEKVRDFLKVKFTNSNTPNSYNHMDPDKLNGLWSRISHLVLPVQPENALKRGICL
# protocolDescription: LAP1 binders from COS7 cell lysate, primary screen, small-molecule microarray, 635/667 nm fluorescence (AID 1116)
# statedConditions: COS7-hLAP1 lysate binding, 635 nm fluorescence, higher = more signal
assayEndpoint: composite z-score
Keep the answer to the number alone.

Looking for the measured composite z-score of CC(C)=NO[C@H](C)c1cn([C@@H]2COC[C@H]2O)nn1 , can you help? 0.26

Looking for the measured composite z-score of CC(=O)OC[C@H]1O[C@H](CCON=C(C)CCN2CCCc3nc(C)c(C)cc32)C=C[C@@H]1OC(C)=O , can you help? 0.489

Looking for the measured composite z-score of CC#CCOCCC=C1c2ccccc2[C@@H](OC)[C@@H]1C , can you help? 0.139

Looking for the measured composite z-score of CCOC(=O)NN=C1C[C@@H](O)[C@@H](O)[C@@H]2[C@@H]3C(=O)N(CC)C(=O)[C@@H]3CC[C@H]12 , can you help? 0.0626

Looking for the measured composite z-score of COC(=O)[C@H](C)NC(=O)CCC1CC(OC(=O)NCCc2ccc(F)cc2)CC2(CCCC(COC(=O)NCC3CCCCC3)O2)O1 (stereo partly specified) , can you help? 0.774

Looking for the measured composite z-score of CO[C@H]1COC(=O)[C@H](C)COC(=O)[C@H](C)NC(=O)CC=C[C@H]1C , can you help? 0.143

Looking for the measured composite z-score of COC(=O)[C@H](C)NC(=O)CCC1CC(OC(=O)NCCc2ccc(F)cc2)CC2(CCCC(COC(=O)NCc3ccccc3)O2)O1 (stereo partly specified) , can you help? 0.708

Looking for the measured composite z-score of COc1ccc(COC(=O)NN=C2C[C@@H](O)[C@@H](O)[C@@H]3[C@@H]4C(=O)N(C5CCCCC5)C(=O)[C@@H]4CC[C@@H]23)cc1 , can you help? -0.011

Looking for the measured composite z-score of CC(C)[C@@H](OCc1ccccc1)[C@H](C)C=NOC[C@@H](O)[C@H]1O[C@@H]2OC(C)(C)O[C@@H]2[C@H]1O , can you help? 0.145

Looking for the measured composite z-score of CCOC(=O)CCN1C(=O)[C@H]2[C@H]3[C@H](O)[C@H](O)CC(=NNC(=O)OCc4ccc(OC)cc4)[C@H]3CC[C@H]2C1=O , can you help? -0.176

Looking for the measured composite z-score of CC(C)=NOC[C@@H](O)[C@H]1O[C@@H]2OC(C)(C)O[C@@H]2[C@H]1O , can you help? 0.243

Looking for the measured composite z-score of CC1(C)O[C@H]2O[C@H]([C@H](O)CON=C3[C@H]4CCn5c(=O)n(-c6ccccc6)c(=O)n5[C@H]4[C@H](O)[C@@H]4O[C@H]34)[C@H](O)[C@H]2O1 , can you help? -0.144

Looking for the measured composite z-score of CSCC[C@@H]1NC(=O)CC=C[C@@H](C)COC(=O)[C@H](C)COC1=O , can you help? 0.443

Looking for the measured composite z-score of CC(CCC(=O)OC[C@H]1O[C@H](C#Cc2ccccc2)C=C[C@@H]1Oc1ccc(C)cc1)=NOC(C)CN1CCCc2nc(C)c(C)cc21 (stereo partly specified) , can you help? 0.132

Looking for the measured composite z-score of COC(=O)[C@H](C)NC(=O)CCC1CC(OC(=O)NCc2ccc3c(c2)OCO3)CC2(CCCC(COC(=O)NCCc3ccc(Cl)cc3)O2)O1 (stereo partly specified) , can you help? 0.288

Looking for the measured composite z-score of CC(=O)OC[C@H]1O[C@H](CCON=C(C)C)C=C[C@@H]1OC(C)=O , can you help? 0.3
